system_name: T1, Human IL-11 (human, UniProt P20809 22-199)
T1 construct: Recombinant human IL-11 (GenScript Cat. No. Z03108-1) or IL-11 secreted by human cells; the mature form is said to have 178 residues; also called recombinant human IL-11; endogenously produced IL-11
T1 sequence: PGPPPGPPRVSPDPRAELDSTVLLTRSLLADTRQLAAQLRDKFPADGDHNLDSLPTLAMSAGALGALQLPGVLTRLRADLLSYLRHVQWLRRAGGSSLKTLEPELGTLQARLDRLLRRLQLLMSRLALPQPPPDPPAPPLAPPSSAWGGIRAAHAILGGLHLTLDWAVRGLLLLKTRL
test_protocol: SPR, Single Cycle Kinetics, BIAcore T200; human IL-11 immobilised on CM5 chip, antibody in IgG1 format as analyte, 1:1 model

| binder | Kd / nM |
| --- | --- |
| 01G (antibody, IgG1, V domains shown, C91G variant of the YU100-H01 VL) VH: QVQLVQSGGGVVQPGRSLRLSCAASGFTFSSYAMHWVRQAPGKGLEWVAVISYDGSNKYYADSVKGRFTISRDNSKNTLYLQMNSLRAEDTAVYYCARIMGYDYGDYDVVDYWGQGTLVTVSS VL: QSALTQPRSVSGSPGQSVTISCTGTSSDVGAYNYVSWYQQHPGKAPKLMIYDVSERPSGVPDRFSGSKSGNTASLTISGLQAEDEADYYCGSYAGSYTWVFGGGTKLTVLG | 560 |
